Origin of values: PubChem BioAssay (NCI)

- Tested on: HL-60(TB) leukemia
- testMethodNotes: NCI tumour cell line growth inhibition, 48 h
readoutKind: TGI

{"compound": "COc1cc(C)c(CC/C(C)=C/Cc2cc(O)ccc2O)c(C)c1C", "assayTarget": "HL-60(TB) leukemia", "recordedValue": "> 25 µM"}
{"compound": "COC1OC(C)C(NC(=O)OCC(Cl)(Cl)Cl)C2OC(C)(C)OC12 (centres undefined)", "assayTarget": "HL-60(TB) leukemia", "recordedValue": "> 100 µM"}
{"compound": "Cc1nc2ccccc2nc1CC(=O)C(=O)Nc1ccc(Cl)cc1Cl", "assayTarget": "HL-60(TB) leukemia", "recordedValue": "> 100 µM"}
{"compound": "CCCCCCCC(=O)OCC(COC(=O)C(C)(C)C)OC(=O)Cc1ccccc1 (centres undefined)", "assayTarget": "HL-60(TB) leukemia", "recordedValue": "> 100 µM"}
{"compound": "Cc1c2cccc-2c2cc(O)c3ccccc3c2n1-c1ccc(N(C)C)cc1", "assayTarget": "HL-60(TB) leukemia", "recordedValue": "> 100 µM"}

stdin: Quick check: TGI of Cn1c2ccccc2n2c3ncccc3c(=O)c(C#N)c12 ?
stdout: > 100 µM

stdin: Quick check: TGI of Cc1cc([N+](=O)[O-])c(C)c2c1[nH]c1ccc(Cl)cc12 ?
stdout: > 100 µM

stdin: Quick check: TGI of O=C1NC(=O)c2c1n(Cc1ccccc1)c(=O)n2Cc1ccccc1 ?
stdout: > 100 µM

stdin: Quick check: TGI of Cc1ccccc1-c1nc2c(N)nc(N)nc2nc1N ?
stdout: > 100 µM

stdin: Quick check: TGI of O=C(NCCNCCO)c1ccc2c(c1)oc1cc3ccccc3c(=O)n12 ?
stdout: > 50 µM

stdin: Quick check: TGI of Cc1ccc2c(c1C)C(=O)C1(Cc3cc4c(cc3C1=O)CCC4)C2 (centres undefined) ?
stdout: > 100 µM

stdin: Quick check: TGI of OCc1ccc2c(c1)CC1(C2)Cc2cc3c(cc2C1O)CCC3 (centres undefined) ?
stdout: > 23.4 µM

stdin: Quick check: TGI of C[C@@H]1CC[C@@]2(C)C(C(=O)O)=CCCC2[C@@]1(C)CC(=O)c1ccoc1 (some centres undefined) ?
stdout: > 25 µM

====

- Tested on: K-562 leukemia
- testMethodNotes: NCI tumour cell line growth inhibition, 48 h
readoutKind: TGI

Some solved entries appear below for comparison.
{"molecule": "Nc1ncc(Cc2ccc3c(c2)OCO3)c(N)n1", "readoutKind": "TGI", "recordedValue": "> 100 µM"}
{"molecule": "CN(C)CCN(c1ccccn1)c1ccccn1", "readoutKind": "TGI", "recordedValue": "> 100 µM"}
{"molecule": "O=c1/c(=C/c2ccccc2[N+](=O)[O-])sc2nnc(-c3cccnc3)n12", "readoutKind": "TGI", "recordedValue": "> 100 µM"}
{"molecule": "O=C1c2cccc(Oc3ccccc3)c2C(=O)c2cccc(Oc3ccccc3)c21", "readoutKind": "TGI", "recordedValue": "> 100 µM"}
{"molecule": "O=[N+]([O-])c1ccc(C[P+]2(c3ccccc3)CCCCC2)cc1", "readoutKind": "TGI", "recordedValue": "> 100 µM"}
{"molecule": "N#CC1(c2ccc(NC(=O)c3cccnc3NCc3ccncc3)cc2)CCCC1", "readoutKind": "TGI", "recordedValue": "> 51 µM"}
{"molecule": "NC1=CC(=O)c2c(O)ccc(O)c2C1=O", "readoutKind": "TGI", "recordedValue": "> 50.5 µM"}
{"molecule": "CC(C)NC(=O)OCc1c(COC(=O)NC(C)C)n(C)c2c1ccc1sccc12", "readoutKind": "TGI", "recordedValue": "> 52.2 µM"}

stdin: Quick check: TGI of OCc1ccc2c(c1)CC1(C2)Cc2cc3c(cc2C1O)CCC3 (stereo unspecified) ?
stdout: > 37.6 µM

stdin: Quick check: TGI of COc1ccc2sc3c(NCCCN)nc4ccccc4c3c(=O)c2c1 ?
stdout: 3.4 µM

stdin: Quick check: TGI of O=[N+]([O-])c1ccc(Cl)c2c([N+](=O)[O-])cccc12 ?
stdout: > 10 µM

stdin: Quick check: TGI of COc1ccc2c(c1)c(-c1nc(-c3c[nH]c4ncccc34)cs1)cn2CCCN1CCOCC1 ?
stdout: 4.95 µM

stdin: Quick check: TGI of C[C@]12CC[C@H]3[C@@H](CCC4=CC(=O)CC[C@@]43C)[C@@H]1CC[C@@H]2c1csc(N)n1 ?
stdout: > 100 µM

stdin: Quick check: TGI of COC(=O)C1C(C(=O)OC)C2C(=O)C3C(C(=O)OC)C(C(=O)OC)C3C(=O)C12 (stereo unspecified) ?
stdout: > 100 µM

stdin: Quick check: TGI of COc1cc([C@@H]2c3cc4c(cc3[C@@H](NC(=O)c3ccc(C#N)cc3)C3COC(=O)[C@@H]32)OCO4)cc(OC)c1O (stereo partly specified) ?
stdout: > 100 µM

stdin: Quick check: TGI of CN(C)c1nc(Oc2nc(N(C)C)nc(N(C)C)n2)nc(N(C)C)n1 ?
stdout: > 100 µM
